assay: viability profiling in MM1S myeloma cells – cell-based, resazurin fluorescence, basal, 24 h, PK04 Diversity Set, profiling panel (AID 1174); settings: higher = more signal, called active from +8 up or from −8 down;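 note: MM1S multiple myeloma cell line; test concentration not given here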
measure.name: z-score
Number only, please.

Examples from the recorded data:
molecule	z-score
CC(C)(C)OC(=O)CC[C@]1(C(=O)O)COC(c2ccc(OCCCO)cc2)=N1	-0.249
O=C1C2C=CC(C(O)c3ccc(Br)cc3)N(Nc3ccccc3)C2C(=O)N1c1ccccc1 (stereo not given)	-1.95
COc1ccc([Si](C)(C)[C@@H]2[C@@H](CCO)O[C@]3(C(=O)N(Cc4ccccc4)c4ccc(N5C(=O)COc6ccccc65)cc43)[C@H]2C)cc1	-0.657
CC(C)[Si](C#C[Si](C(C)C)(C(C)C)C(C)C)(O[C@H](C)c1cn(Cc2cccc(Cl)c2)nn1)C(C)C	1.77
C=C(COC)C(=O)CC[C@H](OC(=O)c1ccccc1-c1ccccc1C(=O)O)c1ccc(OCCO)cc1	-0.288
C=C[C@@H](O)[C@H]1CC(c2ccccc2)=NO1	0.325
CC(C)c1ccc(NN2C(C(O)c3ccccn3)C=CC3C(=O)N(c4ccccc4)C(=O)C32)cc1 (stereo not given)	-1.17
Cc1ccc(S[C@]2(C(=O)NCC(C)C)CC(=O)N(C3CCCCC3)[C@@H]2c2ccc(CO)cc2I)cc1	0.0989
COc1ccccc1CN1C(=O)c2ccccc2[C@@]2(Cc3ccccc3N(C3CC3)C2=O)[C@@H]1c1ccc(CO)cc1	-0.319
COCCOC(=O)N1C(=O)[C@@]2(c3cc(C#CC4(O)CCCCCC4)ccc31)[C@H](C(=O)N1CCN(c3ncccn3)CC1)[C@H]1C(=O)O[C@H](c3ccccc3)[C@H](c3ccccc3)N1[C@@H]2c1ccc(O)cc1	-0.0906

Asked: Field request: z-score | item: CC(C)CCC[C@@H](C)[C@H]1CC[C@@]2(C)C3=C(CC[C@]12C)[C@@]1(C)CC[C@H](OC(=O)c2ccc(N)cc2)C(C)(C)C1CC3 (stereo not given in full)
Given back: 0.467

Asked: Which value of z-score has been reported for "COc1ccc([Si](C)(C)[C@@H]2[C@@H](CCO)O[C@]3(C(=O)N(Cc4cccc(N5C(=O)COc6ccccc65)c4)c4ccccc43)[C@H]2C)cc1" in the records?
Given back: -3.29

Asked: Entry under review: "CC1=C2[C@@H](CCc3ccccc3)OB(O)C[C@@H]2[C@@H]2C(=O)C=CC(=O)[C@@H]2C1" . Reported z-score?
Given back: -1.06

Asked: Find the recorded z-score belonging to O=C1c2ccccc2C(=O)C2CC([C@H]3Oc4ccccc4S(=O)(=O)N4CCC[C@@H]34)=CCC12 (stereo not given in full) and report it.
Given back: -0.583

Asked: Suppose we examine the molecule "[N-]=[N+]=NCc1ccccc1C[C@@]1(C(=O)NCCN2CCOCC2)N=C(c2ccc(OCCCO)cc2)O[C@@H]1c1ccccc1CN=[N+]=[N-]" ; what z-score value has been reported?
Given back: -0.982

* * *

Each entry below lists one item and its recorded composite z-score value.
biological target: Concanavalin-A (Canavalia ensiformis) (UniProt P02866); experiment: compounds binding concanavalin A lectin – biochemical, small-molecule microarray, Alexa647 label, 635 nm, artefact control for SMM control protein annotation, primary screen (AID 1127); settings: ConA-A647 binding fluorescence, higher = more signal;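 note: z combines 667 nm emission intensity with signal-to-noise across three replicate slides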
Sequence (P02866 whole entry, looked up): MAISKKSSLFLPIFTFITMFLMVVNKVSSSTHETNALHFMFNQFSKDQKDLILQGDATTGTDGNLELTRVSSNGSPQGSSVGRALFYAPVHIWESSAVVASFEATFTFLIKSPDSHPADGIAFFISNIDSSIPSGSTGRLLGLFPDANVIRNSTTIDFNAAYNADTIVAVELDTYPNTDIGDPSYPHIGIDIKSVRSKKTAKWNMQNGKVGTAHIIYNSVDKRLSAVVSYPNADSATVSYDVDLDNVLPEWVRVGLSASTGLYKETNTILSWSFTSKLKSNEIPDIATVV
Just the number, please, no unit after it.

molecule	numeric.readout
COCCOC(=O)N1C(=O)[C@@]2(c3cc(C#Cc4ccc(OC)cc4)ccc31)[C@H](C(=O)N1CCc3cc(OC)c(OC)cc3C1)[C@H]1C(=O)O[C@H](c3ccccc3)[C@H](c3ccccc3)N1[C@@H]2c1ccc(OCCO)cc1	1.09
CC1C=C(CCCO)C=C(C(=O)OCCS(C)(=O)=O)C(C(=O)OCCS(C)(=O)=O)=CN1Cc1cccc(OC(F)(F)F)c1 (configuration not stated)	1.08
[N-]=[N+]=NCc1ccccc1[C@H]1OC(c2ccc(OCCCO)cc2)=N[C@@]1(Cc1ccccc1N=[N+]=[N-])C(=O)NCCN1CCOCC1	1.14
CCCCCCCCCCC(O)C1C=CC2C(=O)NC(=O)C2N1Nc1ccccn1 (configuration not stated)	0.709
C=CCOc1ccc([C@@H]2CC=C(C(=O)OCC)[C@H](c3cccc(Br)c3)N2S(=O)(=O)c2ccc(C)cc2)cc1	0.709

Asked: Entry C=CCC(OC(C)=O)[C@@H]1[C@@H](N(Cc2ccc(-c3ccccc3)cc2)C(=O)c2cccc3ccccc23)c2cc(OCCCO)ccc2N1C(=O)c1ccc2ccccc2n1 (some centres not stated) has what composite z-score?
Given back: -0.0782

Asked: # get_value(readout='composite z-score', item= "[N-]=[N+]=NCc1ccccc1C[C@@]1(C(=O)NCCN2CCOCC2)N=C(c2ccc(OCCCO)cc2)O[C@@H]1c1ccccc1CN=[N+]=[N-]" )
Given back: 1.06
